Target: T1, hu-MCSP(D3 domain)-avi-his (human, UniProt Q6UVK1 1582-2224)
T1 construct: Recombinant D3 domain with avi and his tags; also called human MCSP(D3 domain)-avi-his; Human MCSP D3
T1 sequence: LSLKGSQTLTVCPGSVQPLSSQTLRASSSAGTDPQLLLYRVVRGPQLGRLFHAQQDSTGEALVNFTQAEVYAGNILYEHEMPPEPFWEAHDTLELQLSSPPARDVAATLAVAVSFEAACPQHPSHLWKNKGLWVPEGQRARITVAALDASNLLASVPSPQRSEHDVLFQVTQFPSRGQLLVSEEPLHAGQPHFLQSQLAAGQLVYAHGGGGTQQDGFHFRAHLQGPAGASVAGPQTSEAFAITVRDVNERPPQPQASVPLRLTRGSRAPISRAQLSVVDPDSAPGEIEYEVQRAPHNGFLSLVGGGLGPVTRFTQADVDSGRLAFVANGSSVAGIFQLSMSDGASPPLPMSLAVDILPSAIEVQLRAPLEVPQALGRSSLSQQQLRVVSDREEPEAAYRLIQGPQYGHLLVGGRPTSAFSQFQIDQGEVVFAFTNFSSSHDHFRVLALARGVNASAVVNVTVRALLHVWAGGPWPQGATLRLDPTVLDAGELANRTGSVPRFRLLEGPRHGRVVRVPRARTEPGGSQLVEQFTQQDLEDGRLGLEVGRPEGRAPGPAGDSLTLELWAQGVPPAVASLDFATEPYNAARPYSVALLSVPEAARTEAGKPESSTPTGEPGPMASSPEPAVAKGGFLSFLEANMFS
Test: ratio of ProteOn IgG KD, parent M4-3/ML2 against variant
Can you tell me Fold increase over parent for the items I'm about to list?
One number for each entry, in fold.

binder	numeric value
M4-3/ML2(C5) IgG (antibody, V domains shown, Human IgG1) VH: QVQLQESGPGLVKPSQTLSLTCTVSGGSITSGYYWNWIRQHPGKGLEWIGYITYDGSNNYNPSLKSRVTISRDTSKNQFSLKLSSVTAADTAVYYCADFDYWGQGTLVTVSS VL: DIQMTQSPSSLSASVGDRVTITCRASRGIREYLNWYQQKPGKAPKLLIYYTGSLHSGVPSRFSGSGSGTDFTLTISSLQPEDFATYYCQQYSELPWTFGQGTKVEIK	5

Next binder, please.
Ask: # query: Fold increase over parent of entry M4-3/ML2(E10) IgG (antibody, V domains shown, Human IgG1) VH: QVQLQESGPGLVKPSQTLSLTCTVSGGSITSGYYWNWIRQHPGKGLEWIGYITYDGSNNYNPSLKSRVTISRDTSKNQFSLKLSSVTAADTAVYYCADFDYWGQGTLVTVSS VL: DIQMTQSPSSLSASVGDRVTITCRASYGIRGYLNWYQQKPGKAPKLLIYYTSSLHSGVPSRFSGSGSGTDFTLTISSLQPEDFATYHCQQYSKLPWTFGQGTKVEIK
Result: 2

The reported numbers originate from patent US20140242080A1.
